target: Human C5 (Homo sapiens, UniProt P01031); construct: purchased Complement Technology; experiment: Surface plasmon resonance (SPR), immobilized human C5 (Example 9, Table 18); format: binding; conditions: immobilized human C5, equilibrium dissociation constant; read-out: SPR C5 EQ KD
Sequence (P01031 19-1676): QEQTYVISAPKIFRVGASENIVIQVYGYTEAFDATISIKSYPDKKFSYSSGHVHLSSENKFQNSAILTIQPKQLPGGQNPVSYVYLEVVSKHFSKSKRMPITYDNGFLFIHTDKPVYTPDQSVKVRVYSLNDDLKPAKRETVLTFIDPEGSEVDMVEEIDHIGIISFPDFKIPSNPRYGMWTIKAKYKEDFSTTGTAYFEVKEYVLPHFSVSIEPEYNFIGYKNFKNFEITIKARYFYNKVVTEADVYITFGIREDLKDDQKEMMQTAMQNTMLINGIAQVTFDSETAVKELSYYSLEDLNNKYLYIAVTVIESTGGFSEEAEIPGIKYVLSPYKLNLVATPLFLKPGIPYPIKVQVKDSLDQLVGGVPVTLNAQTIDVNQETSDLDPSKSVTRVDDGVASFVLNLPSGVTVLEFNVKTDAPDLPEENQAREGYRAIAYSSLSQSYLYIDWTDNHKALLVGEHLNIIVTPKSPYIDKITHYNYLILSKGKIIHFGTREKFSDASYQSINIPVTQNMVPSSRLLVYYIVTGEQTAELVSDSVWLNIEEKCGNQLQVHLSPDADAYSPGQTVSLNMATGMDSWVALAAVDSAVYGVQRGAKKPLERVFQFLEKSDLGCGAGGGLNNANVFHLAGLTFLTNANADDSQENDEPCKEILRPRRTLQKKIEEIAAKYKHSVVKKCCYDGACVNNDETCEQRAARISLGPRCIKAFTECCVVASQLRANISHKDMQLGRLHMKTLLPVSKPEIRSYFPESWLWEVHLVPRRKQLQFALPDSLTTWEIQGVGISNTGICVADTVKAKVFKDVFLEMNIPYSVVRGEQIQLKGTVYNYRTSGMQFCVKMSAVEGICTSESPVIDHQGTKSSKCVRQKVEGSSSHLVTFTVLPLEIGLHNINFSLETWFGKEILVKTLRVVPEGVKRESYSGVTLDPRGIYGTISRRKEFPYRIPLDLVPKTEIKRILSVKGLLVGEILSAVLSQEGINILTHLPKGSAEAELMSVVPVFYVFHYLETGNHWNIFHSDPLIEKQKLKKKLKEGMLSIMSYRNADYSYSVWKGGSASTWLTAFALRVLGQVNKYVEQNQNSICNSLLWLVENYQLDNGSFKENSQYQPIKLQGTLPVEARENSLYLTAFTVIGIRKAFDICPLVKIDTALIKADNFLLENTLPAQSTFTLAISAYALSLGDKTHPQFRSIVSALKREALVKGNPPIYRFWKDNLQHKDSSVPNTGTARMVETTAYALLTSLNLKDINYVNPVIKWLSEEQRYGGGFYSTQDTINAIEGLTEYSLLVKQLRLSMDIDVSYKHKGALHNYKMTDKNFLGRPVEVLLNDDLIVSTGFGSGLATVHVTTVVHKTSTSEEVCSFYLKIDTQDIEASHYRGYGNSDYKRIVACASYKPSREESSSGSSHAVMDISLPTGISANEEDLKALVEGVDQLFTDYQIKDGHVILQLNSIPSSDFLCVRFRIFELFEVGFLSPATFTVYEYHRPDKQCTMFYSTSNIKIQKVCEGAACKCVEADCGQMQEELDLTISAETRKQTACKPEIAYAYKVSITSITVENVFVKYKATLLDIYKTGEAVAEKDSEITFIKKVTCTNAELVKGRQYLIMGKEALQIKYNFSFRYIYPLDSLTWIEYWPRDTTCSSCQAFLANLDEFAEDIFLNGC
One threshold, 0.2 µM, splits the recorded Kd values: lower ones are class 1, equal or higher ones are class 0.

Prompt: Is the reported Kd for COc1ccc(NC(=O)NCc2cccc(CN3CCCC3=O)c2)cc1OCCCC(C)C strictly below 0.2 µM?
Completion: class 0

Prompt: Could you please tell me whether Kd recorded for CCOc1ccccc1CNC(=O)Nc1ccc(OC)c(OCCCC(C)C)c1 is less than 0.2 µM?
Completion: class 1

###

biological target: human C5 complement protein (Homo sapiens, UniProt P01031); test: Surface plasmon resonance (SPR), immobilized human C5, 37° C. (Example 12, Table 21); format: binding; conditions: where a range of compound concentrations were analyzed, the lowest value obtained
Sequence (P01031 19-1676): as above
Exercise: state measured Kd for each of the molecules provided.
Give bare numbers, in nM.

Would you please look over these solved cases?
>>> df
                                   molecule  endpoint  readout_value
0  CCCCCOc1cc(N2CCN(Cc3cc(F)ccc3Cl)C2=O)ccc1OC [CU0013]        Kd            454
1  CCCCCOc1cc(N2CCCN(Cc3ccnc4c3ccn4CC(=O)N3CCOCC3)C2=O)ccc1C1CC1 [CU0044]        Kd           35.5
2  CCCCCOc1cc(N2CCCN(Cc3ccc(CC(=O)N4CCOCC4)cc3Cl)C2=O)ccc1OC [CU0116]        Kd           10.3
3  CCCCCOc1cc(N2CCCN(Cc3ccc(CC(=O)N4CCCOCC4)cc3Cl)C2=O)ccc1OC [CU0117]        Kd            8.3
4  CCCCCOc1cc(N2CCCN(Cc3ccnc4c3ccn4CC(=O)N3CC[C@@H](OC)C3)C2=O)ccc1OC [CU0041]        Kd             17

List Kd for every entry below, keeping the order given.
1. CCCCCOc1cc(N2CCCN(Cc3cccc4c3ccn4CC(=O)N3CCCC3)C2=O)ccc1OC [CU0235]
2. CCCCCOc1cc(N2CCCN(Cc3ccc(CC(=O)N[C@@H]4CNC[C@H]4F)cc3OC)C2=O)ccc1OC [CU0108]
3. CCCCCOc1cc(N2CCCN(Cc3ccc(CCN4CCCC4)cc3OC)C2=O)ccc1OC [CU0123]
4. CCCCCOc1cc(N2CCN(Cc3cc(F)ccc3OC)C2=O)ccc1OC [CU0002]
5. CCCCCOc1cc(N2CCCN(Cc3ccc(CC(=O)N4CCCC4)cc3Cl)C2=O)ccc1OC [CU0118]
6. CCCCCOc1cc(N2CCCN(Cc3ccc(CC(=O)N(C)C)cc3Cl)C2=O)ccc1OC [CU0115]
7. CCCC(F)(F)COc1cc(N2CCCN(Cc3ccc(CC(=O)N(C)C)cc3OC)C2=O)ccc1OC [CU0111]

Completion:
1. 3.8
2. 1.2
3. 4.2
4. 83.5
5. 12.8
6. 7.8
7. 3.4

###

target: Human C5 (Homo sapiens, UniProt P01031); construct: purchased Complement Technology; assay: Surface plasmon resonance (SPR), compounds on immobilized human C5 (Example 2, Table 5); format: binding; conditions: lowest value where a range of compound concentrations were analyzed
endpoint: pKd
One number for each entry, as −log10 of the molar value.

These solved cases illustrate the format of a correct answer.
                                   compound  endpoint  readout_value
0  COc1ccc(NC(=O)NCc2cscn2)cc1OCCCC(C)C [SM0059]       pKd           6.95
1  COc1ccc(NC(=O)N[C@@H](CO)c2ccccc2)cc1OCC(C)CC(C)C (stereo partly drawn) [SM0038]       pKd           6.10
2  COc1cc(CNC(=O)Nc2ccc(OC)c(OCCCC(C)C)c2)ccc1O [SM0030]       pKd           6.72
3  COc1ccccc1CNC(=O)Nc1ccc(OC)c(OCCCC(C)C)c1 [SM0006]       pKd           7.74
4  COc1ccc(NC(=O)N[C@@H](COC(C)=O)c2ccccc2)cc1OCCCC(C)C [SM0062]       pKd           5.70
5  COc1ccc(NC(=O)NCc2cccnc2)cc1OCCCC(C)C [SM0049]       pKd           5.39
6  COc1ccc(NC(=O)N[C@@H](CO)c2ccccc2)cc1OCCN(C)C [SM0105]       pKd           5.59
7  COc1ccc(NC(=O)NCc2ccc(CN(C)C)cc2)cc1OCCCC(C)C [SM0043]       pKd           5.71

The record that follows has no pKd shown yet.
Prompt: Which pKd is reported for this compound? COc1ccc(NC(=O)N[C@@H](CO)c2ccccc2OC)cc1OCCCC(C)C [SM0002]
Completion: 7.85

###

Kindly state Kd for each of the entries shown.
target: human C5 complement protein (Homo sapiens, UniProt P01031); assay: Surface plasmon resonance (SPR), immobilized human C5, 37° C. (Example 12, Table 21); type: binding; settings: where a range of compound concentrations were analyzed, the lowest value obtained
One number for each entry, in nM.

In the examples that follow, each entry is paired with its recorded Kd.
In [3]: df
Out[3]:
                                   compound  units  readout_value
0  CCCCCOc1cc(N2CCCN(Cc3ccnc4c3ccn4CC(=O)N3CCOC(COC)C3)C2=O)ccc1OC (centres unmarked)     nM           18.5
1  CCCCCOc1cc(N2CCCN(Cc3ccnc4c3ccn4CC(=O)N(C)C)C2=O)ccc1C1CC1     nM             25
2  CCCCCOc1cc(N2CCCN(Cc3cccc(F)c3Cl)C2=O)ccc1OC     nM            326
3  CCCCCOc1cc(N2CCCN(Cc3ccnc4c3ccn4C3CCN(C)C3=O)C2=O)ccc1OC (single isomer, unassigned) [CU0039(1)]     nM             28
4  CCCCCOc1cc(N2CCCN(Cc3ccc(CCN4CCOCC4)cc3OC)C2=O)ccc1OC     nM            6.4
5  CCCCCOc1cc(N2CCCN(Cc3ccnc4c3ccn4CC(=O)N3CC(=O)N(C)C(C)C3)C2=O)ccc1OC (centres unmarked)     nM           17.5
6  CCCCCOc1cc(N2CCCN(Cc3cccc(-c4cnn(C5CCN(C)CC5)c4)c3F)C2=O)ccc1OC     nM            9.5

Next, consider the following compound.
Prompt: Please give the measured Kd for this compound: CCCCCOc1cc(N2CCCN(Cc3cccc4c3ncn4CC(=O)N3CCN(C(C)=O)CC3)C2=O)ccc1OC
Completion: 10.5

###

Please respond with reported solubility kinetic for every item in the list.
assay: Kinetic solubility in PBS pH 7.4, HPLC-UV (Example 21, Table 27); format: physicochemical; conditions: phosphate buffered saline, aqueous buffer, kinetic from dmso stock, 0.5 M PBS, shaken minimum 24 h at approximately 25° C., HPLC-UV 270 nm
Returns: string containing the numeric result and its unit.

// batch mode: one solubility kinetic value per listed entry
1. COc1ccc(N2CCCN(Cc3ccnc4c3ccn4CC(=O)N(C)C)C2=O)cc1OCCC[C@H]1C[C@@H]1C (racemic) [CU0752]
2. COc1ccc(N2CC[C@H](C)N(Cc3ccnc4c3c(Cl)cn4CC(=O)N(C)C)C2=O)cc1OCCCC1CC1 [SC0119]
3. CCCCCOc1cc(N2CCCN(Cc3ccc(CNC(=O)c4cocn4)cc3OC)C2=O)ccc1OC [CU0161]
4. COc1ccc(N2CCCN(Cc3ccnc4c3c(Cl)cn4CC(=O)N(C)C)C2=O)cc1OCCC[C@H]1C[C@H]1C (racemic) [CU0516]

Completion:
1: 75 µM; 2: 65 µM; 3: 77 µM; 4: 30 µM

###

For each entry below, report its log10 of IC50 value.
target: purified human C5 (Homo sapiens, UniProt P01031); experiment: Red blood cell (RBC) hemolysis assay, optical, absorbance 412 nm (Example 10, Table 19); format: cell-based; details: antibody-sensitized sheep erythrocytes, […] human C5 depleted sera, 0.5 nM purified human C5, absorbance 412 nm; read-out: RBC Hemolysis IC50
Sequence (P01031 19-1676): as above
Kindly note that the scale is log10 and the underlying IC50 is in nM.

In the examples that follow, each entry is paired with its recorded log10 of IC50.
In [3]: df
Out[3]:
                                   compound                                 tested_on       endpoint  readout_value
0  COc1ccc(NC(=O)N[C@@H](CO)c2ccccc2)cc1OCCC1CCCCC1  purified human C5 (Homo sapiens, UniProt P01031)  log10 of IC50           2.81
1  COc1ccc(NC(=O)NC(CO)c2cccc(CNC(=O)OC(C)(C)C)c2)cc1OCCCC(C)C (stereo not shown)  purified human C5 (Homo sapiens, UniProt P01031)  log10 of IC50           3.51
2   COc1ccc(NC(=O)NCc2ncccc2OC)cc1OCCCC(C)C  purified human C5 (Homo sapiens, UniProt P01031)  log10 of IC50           3.05
3  COc1cc(CNC(C)=O)c(NC(=O)NCc2ccnc3c2ccn3CCCN(C)C)cc1OCCCC(C)C  purified human C5 (Homo sapiens, UniProt P01031)  log10 of IC50           2.46
4  COc1ccc(NC(=O)NC(C(=O)NO)c2cccc(OC)c2O)cc1OCCCC(C)C (stereo not shown)  purified human C5 (Homo sapiens, UniProt P01031)  log10 of IC50           1.62
5  CNC(=O)c1cccc(CNC(=O)Nc2ccc(OC)c(OCCCC(C)C)c2)c1  purified human C5 (Homo sapiens, UniProt P01031)  log10 of IC50           2.90
6  COc1cc(CN(C)C(C)=O)c(NC(=O)NCc2ccnc3[nH]ccc23)cc1OCCCC(C)C  purified human C5 (Homo sapiens, UniProt P01031)  log10 of IC50           3.36
7  COc1ccc(NC(=O)Nc2ccc3cc[nH]c3c2)cc1OCCCC(C)C  purified human C5 (Homo sapiens, UniProt P01031)  log10 of IC50           3.52
8  COc1ccc(NC(=O)NCc2ccnc(N)c2OC)cc1OCCCC(C)C  purified human C5 (Homo sapiens, UniProt P01031)  log10 of IC50           2.48
9  COc1ccc(NC(=O)NCc2ccnc(N3CCCC(O)C3)c2)cc1OCCCC(C)C (stereo not shown)  purified human C5 (Homo sapiens, UniProt P01031)  log10 of IC50           3.48

For every listed record, write down its log10 of IC50.
1. COc1ccc(NC(=O)NCc2ccnc(OCCN(C)C)c2)cc1OCCCC(C)C
2. COc1ccc(NC(=O)NCc2cccc3c2ccn3CCN2CCOCC2)cc1OCCCC(C)C
3. COc1ccc(NC(=O)NCc2ccccc2N)cc1OCCCC(C)C
4. COCCNc1cc(CNC(=O)Nc2ccc(OC)c(OCCCC(C)C)c2)ccn1

Completion:
2.47
1.91
3.48
2.84

Look at each compound and report its log10 of IC50.
1. CNc1cccc(CNC(=O)Nc2ccc(OC)c(OCCCC(C)C)c2)c1
2. COc1ccc(NC(=O)NCc2ccnc3c2ccn3C(C)=O)cc1OCCCC(C)C

Completion:
1: 2.96; 2: 3.23

Source of measurements: patent US20230115176A1
